Origin of the recorded values: paper PMC12311003

System Under Test: HBV polymerase (Hepatitis B virus ayw/Japan/JYW796/1988, UniProt Q9QMI1)
Sequence (Q9QMI1 whole entry): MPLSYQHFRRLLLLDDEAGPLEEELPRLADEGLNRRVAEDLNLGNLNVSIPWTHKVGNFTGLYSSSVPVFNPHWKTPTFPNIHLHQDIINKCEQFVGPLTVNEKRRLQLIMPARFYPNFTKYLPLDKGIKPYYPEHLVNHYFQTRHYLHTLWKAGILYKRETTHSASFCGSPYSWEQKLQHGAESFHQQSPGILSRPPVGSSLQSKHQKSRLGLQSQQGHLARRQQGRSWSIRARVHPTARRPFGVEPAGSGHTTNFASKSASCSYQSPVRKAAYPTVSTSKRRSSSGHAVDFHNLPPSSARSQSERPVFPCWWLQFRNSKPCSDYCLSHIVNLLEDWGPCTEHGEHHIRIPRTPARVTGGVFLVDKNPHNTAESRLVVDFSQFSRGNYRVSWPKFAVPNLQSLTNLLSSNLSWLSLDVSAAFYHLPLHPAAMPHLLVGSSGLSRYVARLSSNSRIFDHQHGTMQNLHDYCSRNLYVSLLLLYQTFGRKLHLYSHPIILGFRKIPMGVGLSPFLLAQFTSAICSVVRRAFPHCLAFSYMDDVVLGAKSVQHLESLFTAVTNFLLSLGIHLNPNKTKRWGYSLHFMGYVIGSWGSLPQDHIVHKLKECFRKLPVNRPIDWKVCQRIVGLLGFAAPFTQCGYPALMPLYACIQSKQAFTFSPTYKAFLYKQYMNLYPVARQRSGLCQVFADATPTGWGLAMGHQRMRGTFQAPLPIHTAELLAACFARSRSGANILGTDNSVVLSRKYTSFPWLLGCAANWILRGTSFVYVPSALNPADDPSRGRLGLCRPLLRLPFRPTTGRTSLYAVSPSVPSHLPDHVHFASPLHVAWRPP
Assay Procedure: [3H]TTP incorporation, scintillation counting
Value Type: pIC50
Please note pIC50 is a logarithmic value: minus log10 of concentration in mol/L. Answer with that number alone.

// `Nc1ccn([C@@H]2CS[C@H](CO)O2)c(=O)n1` : pIC50 value = 8.19

====

System Under Test: HCV NS3/NS4A protease (Hepatitis C virus (isolate BK), UniProt P26663)
Sequence (P26663 1027-1657): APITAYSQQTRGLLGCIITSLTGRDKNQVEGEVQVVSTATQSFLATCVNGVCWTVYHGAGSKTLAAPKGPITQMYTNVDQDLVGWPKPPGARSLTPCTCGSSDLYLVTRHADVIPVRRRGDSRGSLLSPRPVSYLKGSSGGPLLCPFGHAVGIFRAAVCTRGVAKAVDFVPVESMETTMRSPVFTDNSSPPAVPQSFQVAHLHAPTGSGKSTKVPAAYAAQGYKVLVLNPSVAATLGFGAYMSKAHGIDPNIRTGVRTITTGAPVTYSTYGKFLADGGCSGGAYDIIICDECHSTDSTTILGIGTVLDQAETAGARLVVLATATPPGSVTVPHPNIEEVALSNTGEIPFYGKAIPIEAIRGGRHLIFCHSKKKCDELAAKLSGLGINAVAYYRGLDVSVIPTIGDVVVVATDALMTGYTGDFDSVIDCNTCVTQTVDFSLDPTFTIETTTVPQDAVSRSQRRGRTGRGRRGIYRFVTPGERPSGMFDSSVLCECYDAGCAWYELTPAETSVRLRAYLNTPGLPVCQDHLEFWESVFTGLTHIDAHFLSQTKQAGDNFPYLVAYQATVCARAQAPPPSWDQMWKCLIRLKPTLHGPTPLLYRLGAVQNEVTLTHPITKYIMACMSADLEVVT
Sequence (P26663 1658-1711): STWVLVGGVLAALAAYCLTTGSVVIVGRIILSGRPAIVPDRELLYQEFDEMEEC
Condition: NS4A/NS4B-derived fluorogenic peptide substrate, 30 min, 37 °C; used as comparator drug
Value Type: pIC50
Please note pIC50 is a logarithmic value: minus log10 of concentration in mol/L. Answer with that number alone.

// `CC(C)OC(=O)[C@H](C)N[P@](=O)(OC[C@H]1O[C@@H](n2ccc(=O)[nH]c2=O)[C@](C)(F)[C@@H]1O)Oc1ccccc1` : pIC50 value = 7.81
